OD490 for assorted binders
target: T1, M6; assay: scFv-phage ELISA
T1 construct: also called PD1 mutant M6
Number, no unit, nothing else.

Guide cases for OD490, answers given:
PD1-49B9 (antibody, V domains shown, scFv-phage in the screening ELISA; later whole IgG) VH: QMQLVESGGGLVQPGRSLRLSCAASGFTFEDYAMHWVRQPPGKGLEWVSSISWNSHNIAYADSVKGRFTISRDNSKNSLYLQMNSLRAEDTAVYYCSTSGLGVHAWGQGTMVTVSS VL: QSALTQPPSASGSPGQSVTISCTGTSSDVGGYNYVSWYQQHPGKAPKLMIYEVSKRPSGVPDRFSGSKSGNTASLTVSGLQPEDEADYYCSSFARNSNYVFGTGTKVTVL    3.9
PD1-29H3 (antibody, V domains shown, scFv-phage in the screening ELISA; later whole IgG) VH: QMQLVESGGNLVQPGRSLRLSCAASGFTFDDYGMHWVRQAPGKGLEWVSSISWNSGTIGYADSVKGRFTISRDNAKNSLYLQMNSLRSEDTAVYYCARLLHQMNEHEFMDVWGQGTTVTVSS VL: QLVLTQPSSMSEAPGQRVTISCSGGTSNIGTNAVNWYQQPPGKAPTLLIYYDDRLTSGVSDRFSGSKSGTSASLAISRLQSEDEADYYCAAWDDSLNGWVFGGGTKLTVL    3.5
PD1-51D9 (antibody, V domains shown, scFv-phage in the screening ELISA; whole IgG in the other assays) VH: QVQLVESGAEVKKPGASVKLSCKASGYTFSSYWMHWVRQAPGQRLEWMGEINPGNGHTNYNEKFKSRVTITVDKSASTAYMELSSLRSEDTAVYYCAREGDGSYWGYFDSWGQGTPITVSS VL: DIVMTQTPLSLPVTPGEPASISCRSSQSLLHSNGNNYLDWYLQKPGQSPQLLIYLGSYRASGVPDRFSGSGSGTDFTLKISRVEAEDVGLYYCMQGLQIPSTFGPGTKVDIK    0.3

Now for the binder whose OD490 we want.
Task item: Param item = PD1-41C9 (antibody, V domains shown, scFv-phage in the screening ELISA; whole IgG in the other assays) VH: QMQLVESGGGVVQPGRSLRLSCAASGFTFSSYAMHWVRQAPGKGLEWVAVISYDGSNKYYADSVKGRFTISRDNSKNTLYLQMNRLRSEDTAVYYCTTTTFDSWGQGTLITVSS VL: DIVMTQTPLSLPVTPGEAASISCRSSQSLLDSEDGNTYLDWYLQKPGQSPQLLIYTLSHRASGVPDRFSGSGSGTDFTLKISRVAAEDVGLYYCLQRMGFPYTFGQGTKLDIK ; retrieve measured OD490.
Reply: 3.6
